Below is a list of entries, each paired with its recorded inhibition at 10 µM value.
Target: ERK1 (Homo sapiens)
Construct: CEREP, France (ran the assays)
Sequence (P27361 whole entry): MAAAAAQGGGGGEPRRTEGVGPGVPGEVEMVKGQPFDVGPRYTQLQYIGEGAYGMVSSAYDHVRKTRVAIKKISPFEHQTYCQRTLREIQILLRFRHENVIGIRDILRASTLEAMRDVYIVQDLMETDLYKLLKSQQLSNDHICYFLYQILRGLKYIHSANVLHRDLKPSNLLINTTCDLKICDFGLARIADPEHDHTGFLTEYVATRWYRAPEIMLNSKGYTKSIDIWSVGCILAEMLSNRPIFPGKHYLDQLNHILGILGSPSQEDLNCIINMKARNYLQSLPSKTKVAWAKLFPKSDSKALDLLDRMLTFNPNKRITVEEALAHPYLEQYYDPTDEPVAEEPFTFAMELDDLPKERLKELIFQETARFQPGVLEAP
Assay: Kinase Selectivity Assay (CEREP, HTRF)
Assay type: biochemical
Settings: read-out: % Inhibition at 10 μM Concentration, ERK1
Procedure: kinase, ROCK2, RSK2, Src kinase, Syk, and TRKA. The % Inhibition was determined
Measured quantity: inhibition at 10 µM (%)

compound=O=C1Nc2ccccc2/C1=C\c1ccc2c(/C=C/c3ccccc3Cl)n[nH]c2c1 subject_of_test="ERK1 (Homo sapiens)" measured_quantity="inhibition at 10 µM" output_unit=% numeric_result=1
compound="COc1ccc2c(c1)C(=Cc1ccc3c(-c4ccc(N5CCN(C)CC5)nc4)n[nH]c3c1)C(=O)N2 (mixture of isomers)" subject_of_test="ERK1 (Homo sapiens)" measured_quantity="inhibition at 10 µM" output_unit=% numeric_result=10
compound=O=C1Nc2ccccc2/C1=C\c1ccc2[nH]nnc2c1 subject_of_test="ERK1 (Homo sapiens)" measured_quantity="inhibition at 10 µM" output_unit=% numeric_result=6
compound=O=C1Nc2ccccc2/C1=C\c1ccc2cn[nH]c2c1 subject_of_test="ERK1 (Homo sapiens)" measured_quantity="inhibition at 10 µM" output_unit=% numeric_result=6
compound="O=C1Nc2ccccc2C1=Cc1ccc2c(/C=C/c3ccccn3)n[nH]c2c1 (mixture of isomers)" subject_of_test="ERK1 (Homo sapiens)" measured_quantity="inhibition at 10 µM" output_unit=% numeric_result=13

###

Molecular target: FGFR2 kinase (Homo sapiens)
Construct: CEREP, France (ran the assays)
Sequence (P21802 22-821): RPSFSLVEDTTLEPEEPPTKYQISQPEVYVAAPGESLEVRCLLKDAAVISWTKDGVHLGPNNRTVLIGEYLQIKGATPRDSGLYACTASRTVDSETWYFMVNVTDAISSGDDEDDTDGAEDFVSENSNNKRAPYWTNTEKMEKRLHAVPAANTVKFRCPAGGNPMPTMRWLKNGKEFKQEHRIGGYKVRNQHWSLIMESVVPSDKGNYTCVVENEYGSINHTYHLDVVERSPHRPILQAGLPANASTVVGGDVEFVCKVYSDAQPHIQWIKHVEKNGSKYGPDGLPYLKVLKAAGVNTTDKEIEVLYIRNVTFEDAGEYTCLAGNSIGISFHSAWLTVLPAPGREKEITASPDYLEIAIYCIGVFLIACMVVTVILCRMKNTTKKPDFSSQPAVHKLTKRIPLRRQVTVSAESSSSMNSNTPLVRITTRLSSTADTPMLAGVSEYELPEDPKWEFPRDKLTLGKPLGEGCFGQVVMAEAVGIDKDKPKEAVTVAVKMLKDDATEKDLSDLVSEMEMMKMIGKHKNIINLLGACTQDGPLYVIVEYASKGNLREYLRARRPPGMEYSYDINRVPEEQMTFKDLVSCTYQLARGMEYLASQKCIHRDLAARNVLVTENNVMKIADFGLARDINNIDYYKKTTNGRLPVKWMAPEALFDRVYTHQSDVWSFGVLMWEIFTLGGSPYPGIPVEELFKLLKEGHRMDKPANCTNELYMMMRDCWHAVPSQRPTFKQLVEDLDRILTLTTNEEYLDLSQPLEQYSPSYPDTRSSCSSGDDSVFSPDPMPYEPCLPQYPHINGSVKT
Assay: Kinase Selectivity Assay (CEREP, HTRF)
Type: biochemical
Conditions: read-out: % Inhibition at 10 μM Concentration, FGFR2
Returns one of t or f; t when inhibition at 10 µM is >= 40%.

compound="O=C1Nc2ccccc2/C1=C\\c1ccc2[nH]nnc2c1 [Example A1]" discrete_label=t
compound="O=C1Nc2ccccc2C1=Cc1ccc2c(/C=C/c3ccccn3)n[nH]c2c1 (mixture of isomers) [Example A41]" discrete_label=t
compound="O=C1Nc2ccccc2/C1=C\\c1ccc2c(/C=C/c3ccccc3Cl)n[nH]c2c1 [Example A60]" discrete_label=f
compound="O=C1Nc2ccccc2/C1=C\\c1ccc2cn[nH]c2c1 [Example A5]" discrete_label=f
compound="COc1ccc2c(c1)C(=Cc1ccc3c(-c4ccc(N5CCN(C)CC5)nc4)n[nH]c3c1)C(=O)N2 (mixture of isomers) [Example A97]" discrete_label=f

###

Target: PKA (Homo sapiens)
Assay: Kinase Selectivity Assay (CEREP, HTRF)
Format: biochemical
Details: read-out: % Inhibition at 10 μM Concentration, PKA
Below is a list of entries, each paired with its recorded inhibition at 10 µM value.
Measured quantity: inhibition at 10 µM (%)

compound="COc1ccc2c(c1)C(=Cc1ccc3c(-c4ccc(N5CCN(C)CC5)nc4)n[nH]c3c1)C(=O)N2 (mixture of isomers) [Example A97]" numeric_result=0
compound="O=C1Nc2ccccc2C1=Cc1ccc2c(/C=C/c3ccccn3)n[nH]c2c1 (mixture of isomers) [Example A41]" numeric_result=-4
compound="O=C1Nc2ccccc2/C1=C\\c1ccc2c(/C=C/c3ccccc3Cl)n[nH]c2c1 [Example A60]" numeric_result=7
compound="O=C1Nc2ccccc2/C1=C\\c1ccc2cn[nH]c2c1 [Example A5]" numeric_result=-1
compound="O=C1Nc2ccccc2/C1=C\\c1ccc2[nH]nnc2c1 [Example A1]" numeric_result=9
